Collected CC50 values appear next to each entry.
assay: in vitro; conditions: African green monkey
value.type: CC50

INSERT INTO measurements (compound, value_type, result) VALUES
  ('Cc1cccc(/C=N/Nc2cc(N3CCOCC3)nc(OCCc3ccccn3)n2)c1 [apilimod dimesylate]', 'CC50', '20 µM'),
  ('CCC(CC)COC(=O)[C@H](C)N[P@](=O)(OC[C@H]1O[C@@](C#N)(c2ccc3c(N)ncnn23)[C@H](O)[C@@H]1O)Oc1ccccc1 [remdesivir]', 'CC50', '205 µM');
